Molecular target: EGFR[T790M/C797S/d746-750] (Homo sapiens, UniProt P00533, C797S/DEL746-750/T790M)
Construct: purchased Carna Bio
Sequence (P00533 with tags, fused parts or gaps DEL746-750/T790M/C797S limits assumed): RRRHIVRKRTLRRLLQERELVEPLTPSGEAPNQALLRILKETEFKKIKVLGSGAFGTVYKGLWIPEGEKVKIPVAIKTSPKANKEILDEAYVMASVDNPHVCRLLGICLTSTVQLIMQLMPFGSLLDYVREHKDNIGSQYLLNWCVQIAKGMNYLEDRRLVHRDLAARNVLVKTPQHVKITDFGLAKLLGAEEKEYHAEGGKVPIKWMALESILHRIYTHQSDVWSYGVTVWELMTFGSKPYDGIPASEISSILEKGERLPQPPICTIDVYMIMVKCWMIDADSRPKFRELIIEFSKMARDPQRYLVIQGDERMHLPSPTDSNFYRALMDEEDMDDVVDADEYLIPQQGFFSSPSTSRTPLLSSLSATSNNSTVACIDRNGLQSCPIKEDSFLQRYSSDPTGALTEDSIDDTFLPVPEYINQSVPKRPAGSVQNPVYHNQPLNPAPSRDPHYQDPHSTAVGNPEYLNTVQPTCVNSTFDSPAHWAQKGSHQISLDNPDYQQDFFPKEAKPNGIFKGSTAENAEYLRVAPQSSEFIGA
Test: Inhibition of EGFR[T790M/C797S/d746-750] biochemical enzymatic activity (HTRF)
Conditions: EGFR T790M-C797S-Del19, 1 mM ATP, 1 h, room temperature, read-out: IC50 (nM) @T790M - C797S - Del19
Experimental: Biological Example 1: Inhibition of EGFR WT and Mutant Biochemical Enzymatic Activity The inhibition potency of compounds against these enzymes was assessed using Homogenous Time Resolved Fluorescence approach (HTRF, CisBio. Cat No. 62TKOPEJ). Inhibitory effects of the compounds were determined by measuring the enzymatic activity of EGFR enzyme phosphorylates 1 μM TK Substrate-biotin in the presence of 1 mM adenosine-5′-triphosphate (ATP) and varying concentrations of the test compound. […]
The entries below come with measured IC50 values attached.
Enter your answer as a number in nM; do not include the unit.

# annotated cases, reported IC50 shown
Ask: Would you mind telling me what IC50 value was observed for CN(C)C1CCN(c2ccc3nc4n(c3c2)C23CCC(CN(CCOc5c(cnn5C)-c5cc(cn(C)c5=O)C(=O)N4)C2)C3)CC1 (single isomer, unassigned) [Example A64A] ?
Result: 2100

Ask: Would you mind telling me what IC50 value was observed for CN1C2CC1CN(c1ccc3nc4n(c3c1)C13CCC(CN(CCOc5c(cnn5C)-c5cc(cn(C)c5=O)C(=O)N4)C1)C3)C2 (single isomer, unassigned) [Example A98B] ?
Result: 2.7

Okay, next one:
Ask: Would you mind telling me what IC50 value was observed for CN1CCC2CN(c3ccc4nc5n(c4c3)C34CCC(CN(CCOc6c(cnn6C)-c6cc(cn(C)c6=O)C(=O)N5)C3)C4)CC21 (single isomer, unassigned) [Example A79B] ?
Result: 11
